Experiment: chemical genetic growth profiling, strain panel (AID 1159580);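 also: tested at 20 µM; growth read once vehicle control cultures reached saturation at 30 °C; 1 = growth at the plate median or of vehicle wells; lower values mean less growth of the strain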
Conditions: S. cerevisiae deletion strains, growth OD, locus YOR184W, strain ser1
Screen size: about 5,500 compounds; about 2,000 (36%) were called active. Not shown: some 18% with an inconclusive outcome. Rule as the data show it: active = normalized growth mostly below about 0.91 (no sharp cut-off); inconclusive = no clear call, values can overlap the other calls; inactive = mostly above about 0.92. Some of the results follow.
Respond with a class label; see yes (1) for active, no (0) for inactive

Exam item: Record lookup: outcome of this test for CC(=O)Oc1cc(OC(C)=O)c2c(=O)c(-c3ccccc3)coc2c1 ?
Marked response: no (0)

Exam item: Identify the outcome logged in this assay for the compound shown: COc1cccc(-c2cc(=O)c3cc(OC)ccc3o2)c1
Marked response: yes (1)

Exam item: Give the logged outcome of this assay for the following compound: CCn1cc(C(=O)O)c(=O)c2cc(F)c(N3CCNCC3)cc21
Marked response: no (0)

Exam item: What classification did Cn1c(=O)c2[nH]c(C3CCCC3)nc2n(C)c1=O end up with in this test?
Marked response: no (0)

Exam item: Outcome? O=c1oc2ccccc2c(O)c1Cc1c(O)c2ccccc2oc1=O
Marked response: no (0)

Exam item: Hi team, can someone confirm the assay call for CCC(/C=C/[C@@H](C)[C@H]1CCC2C3CC=C4C[C@@H](O)CC[C@]4(C)C3CC[C@@]21C)C(C)C (stereo partly drawn) ?
Marked response: no (0)

Exam item: Identify the outcome logged in this assay for the compound shown: C=CCCCCCCCCCCCC(O)CC(O)CO (stereo not drawn) (tested in a mixture with another compound)
Marked response: yes (1)

Exam item: Would you mind telling me which call this test gave CN1CCOC(c2ccccc2)c2ccccc2C1 (stereo not drawn) ?
Marked response: no (0)

Exam item: State the result this test recorded for COc1cccc(-c2cc(=O)c3ccc(OC)cc3o2)c1 .
Marked response: no (0)

Exam item: Hello, I am checking results. What call was entered for C[N+]1(CCCCC[N+]2(C)CCCC2)CCCC1 ?
Marked response: no (0)

Exam item: I would be grateful if you could indicate the recorded call for COc1cc([C@@H]2c3cc4c(cc3C(O[C@@H]3O[C@@H]5CO[C@@H](c6cccs6)OC5[C@H](O)[C@H]3O)C3COC(=O)[C@@H]32)OCO4)cc(OC)c1O (stereo partly drawn) .
Marked response: no (0)

Exam item: Please indicate how the test categorized C=CCCCCCCCCCCCC(O)CC(O)CO (stereo not drawn) .
Marked response: yes (1)

Exam item: Please share the test call associated with Cc1cc(=O)c2c(o1)-c1c(cc(O)c(O)c1C(=O)O)OC2 .
Marked response: no (0)

Exam item: What was the test verdict on O=c1c(-c2ccc(O)cc2)coc2cc(O)cc(O)c12 ?
Marked response: no (0)

Exam item: # lookup: test call for CC(C)=CCc1c2c(c(O)c3c(=O)c(O)c(-c4ccccc4)oc13)C=CC(C)(C)O2
Marked response: yes (1)

Exam item: Could you kindly confirm the outcome this assay logged for CC(=O)Oc1c(-c2ccccc2)oc2c(CC=C(C)C)c3c(c(OC(C)=O)c2c1=O)C=CC(C)(C)O3 ?
Marked response: no (0)

Exam item: Field: outcome | Entry: COc1ccc2c(=O)cc(-c3ccccc3OC)oc2c1
Marked response: yes (1)

Exam item: Tell me the recorded outcome of this test for CN(N=O)C(=O)N[C@@H]1[C@@H](O)[C@H](O)[C@@H](CO)O[C@@H]1O .
Marked response: no (0)

Exam item: Kindly provide the recorded test outcome for the following compound: Nc1nc(N)c2nc(-c3ccccc3)c(N)nc2n1
Marked response: no (0)

Exam item: Write down the call the test reported for this compound. Item: CC(=O)Nc1cccc(O)c1
Marked response: no (0)

Exam item: Hello, I am checking results. What call was entered for COc1c2c(cc3c1OCO3)CC[N+](C)=C2 ?
Marked response: no (0)

Exam item: Lab log entry: C=CCc1ccccc1OCC(O)CNC(C)C (stereo not drawn) — outcome as called in the assay?
Marked response: no (0)

Exam item: Can you look up the reported call for Cc1cc(=O)c2c(O)c3c(cc2o1)OC(C)(C)CC3 for me?
Marked response: no (0)

Exam item: Dear all, I need the recorded test outcome for COc1c(O)cc2c(-c3ccccc3)cc(=O)oc2c1OC , thank you.
Marked response: no (0)

Exam item: Which result was noted for this compound in the test: O=c1c2ccccc2[se]n1-c1ccccc1
Marked response: yes (1)

Exam item: Query: recorded result category for NC(=O)CC[C@@H](N)C(=O)O in this test
Marked response: no (0)

Exam item: How did this test come out for O=c1c2ccccc2oc2ccc(O)cc12 ?
Marked response: yes (1)

Exam item: Write down the call the test reported for this compound. Item: CC(=O)[C@H]1CCC2C3CC=C4C[C@@H](O)CC[C@]4(C)C3CC[C@@]21C (stereo partly drawn)
Marked response: yes (1)

Exam item: Which outcome was assigned to Nc1ccc(C(=O)O)c(O)c1 in this test?
Marked response: no (0)

Exam item: Which outcome was assigned to NS(=O)(=O)c1cc2c(cc1C(F)(F)F)NCNS2(=O)=O in this test?
Marked response: no (0)

Exam item: Per the records of this test, what outcome belongs to CC(=O)Nc1ccc(O)cc1 ?
Marked response: no (0)

Exam item: For this compound, state the assay outcome: CCN(CCCCOC(=O)c1ccc(OC)c(OC)c1)C(C)Cc1ccc(OC)cc1 (stereo not drawn)
Marked response: no (0)

Exam item: Test call for this compound, please: O=C(O)c1nc2cc(Cl)c(Cl)cc2[nH]c1=O
Marked response: no (0)

Exam item: Check the results log: what was the call for N[C@@H]1CONC1=O ?
Marked response: no (0)

Exam item: Which outcome did this test record for the compound CC1(C)O[C@@H]2CC3C4C[C@H](F)C5=CC(=O)C=C[C@]5(C)[C@@]4(F)[C@@H](O)C[C@]3(C)[C@]2(C(=O)CO)O1 (stereo partly drawn) ?
Marked response: no (0)

Exam item: Please state the recorded outcome for this compound: O=C(O)/C=C(\CC(=O)O)C(=O)O
Marked response: no (0)

Exam item: Kindly provide the recorded test outcome for the following compound: C#CCOS(=O)OC1CCCCC1Oc1ccc(C(C)(C)C)cc1 (stereo not drawn)
Marked response: no (0)

Exam item: Hi team, can someone confirm the assay call for CC1NC(=O)NC1=O (stereo not drawn) ?
Marked response: no (0)
